B1: glmS ribozyme (parent)
chain: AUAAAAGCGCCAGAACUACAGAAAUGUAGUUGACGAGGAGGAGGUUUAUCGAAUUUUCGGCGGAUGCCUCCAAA

- Variants of: B1
- Method Notes: self-cleavage kobs at 640 uM GlcN6P; higher = faster cleavage; RNA array
- Condition Set: with glucosamine-6-phosphate
Fewer inactive variants are shown than the library holds.
Measured self-cleavage kobs at 640 uM GlcN6P, listed per entry for reference.
The answer is to be given in s⁻¹; state only the numeric part.

Incoming: Give the value of self-cleavage kobs at 640 uM GlcN6P reported for the following: G40A U47A
Outgoing: 0.00126

Incoming: Hello, please tell me recorded self-cleavage kobs at 640 uM GlcN6P for this one: U55G C71A
Outgoing: 0.00113

Incoming: Could you please provide reported self-cleavage kobs at 640 uM GlcN6P for C16A G66A ? Thanks!
Outgoing: 0.000223

Incoming: Specify measured self-cleavage kobs at 640 uM GlcN6P for G41A A53C .
Outgoing: 8.67e-05

Incoming: Annotate the variant "G13A" with its measured self-cleavage kobs at 640 uM GlcN6P.
Outgoing: 0.000162

Incoming: Using the record for U31A U47G , state its measured self-cleavage kobs at 640 uM GlcN6P.
Outgoing: 0.00063

Incoming: Assign self-cleavage kobs at 640 uM GlcN6P to the following record: G29U A39C
Outgoing: 0.000457

Incoming: Could you please provide reported self-cleavage kobs at 640 uM GlcN6P for C11U A15U C70G ? Thanks!
Outgoing: 0.000134

Incoming: Report self-cleavage kobs at 640 uM GlcN6P for G37C C70U
Outgoing: 2.26e-05

Incoming: Specify measured self-cleavage kobs at 640 uM GlcN6P for G32U C67G .
Outgoing: 4.87e-05

Incoming: Note down self-cleavage kobs at 640 uM GlcN6P recorded for G13U C16U
Outgoing: 0.0004

Incoming: Write down self-cleavage kobs at 640 uM GlcN6P measured for item U46G U47A
Outgoing: 0.00231

Incoming: Specify self-cleavage kobs at 640 uM GlcN6P for A12G A14C and stop.
Outgoing: 3.2e-05

Incoming: Give the value of self-cleavage kobs at 640 uM GlcN6P reported for the following: C11U A36G C50G
Outgoing: 0.000352

Incoming: Could you please provide reported self-cleavage kobs at 640 uM GlcN6P for A39G G66U ? Thanks!
Outgoing: 0.00133

Incoming: Retrieve self-cleavage kobs at 640 uM GlcN6P measured for A15G A48U U54A and print it.
Outgoing: 0.000159
